- System: MCF7
- TEST: Inhibition of 17beta-estradiol-induced in ERalpha positive human MCF7 cells proliferation assessed as [3H]-thymidine incorporation after 72 hrs by liquid scintillation counting
- Type: functional, cell-based
MEASUREMENT_NAME: log10 IC50 (log10 of the value in nM)

molecule="C[C@@H](c1cc(O)c2c(c1)CC[C@H]1[C@H]2C[C@@H]2O[C@@]23CC=CC(=O)[C@]13C)[C@@H]1C[C@@H]2O[C@@H]2[C@H](O)O1 [SALPICHROLIDE G]" measurement_name="log10 IC50" endpoint_value=2.15
molecule=C[C@@H](c1ccc2c(c1)CC[C@H]1[C@H]2C[C@@H]2O[C@@]23CC=C[C@H](O)[C@]13C)[C@H]1C[C@]2(C)O[C@]2(C)[C@H](O)O1 measurement_name="log10 IC50" endpoint_value=1.26
molecule=CC(=O)c1ccc2c(c1)CC[C@H]1[C@H]2CC[C@H]2C[C@@H](O)CC[C@@]21C measurement_name="log10 IC50" endpoint_value=2.52
molecule="C[C@]12CC[C@@H]3c4ccc(O)cc4C[C@@H](CCCCCCCCC[S+]([O-])CCCC(F)(F)C(F)(F)F)[C@H]3[C@@H]1CC[C@@H]2O (stereo not given in full)" measurement_name="log10 IC50" endpoint_value=0.28
molecule=CC(=O)c1ccc2c(c1)CC[C@H]1[C@H]2CC[C@H]2CC=CC(=O)[C@@]21C measurement_name="log10 IC50" endpoint_value=1.70
